method.description: Long-term toxicity test, 13 consecutive weeks, dogs
Type: in vivo
reported.conditions: dog, in vivo; long-term toxicity test, dogs; read-out: NOAEL dose
metric: NOAEL at 13 weeks
Please answer in the form of a number followed by its unit of measurement.

Ask: Given the molecule CCCCC(O)c1ccc(Br)cc1C(=O)[O-].[Na+] (stereo not shown) , what is its reported NOAEL at 13 weeks?
Reply: 50 mg/kg

----------
method.description: BZP1601 Phase I single dose pharmacokinetics in healthy subjects
reported.conditions: both, human, plasma, iv
metric: half-life

Ask: Given the molecule CCCCC(O)c1ccc(Br)cc1C(=O)[O-].[Na+] (stereo not shown) , what is its reported half-life?
Reply: ~8 h

----------
method.description: in vivo
reported.conditions: dog, in vivo; single intravenous injection, dogs
metric: MTD (mg/kg)
Give bare numbers, in mg/kg.

Ask: Given the compound CCCCC(O)c1ccc(Br)cc1C(=O)[O-].[Na+] (stereo not shown) , what is its reported MTD?
Reply: 300

----------
method.description: Long-term toxicity test, 13 consecutive weeks, rats
Assay type: in vivo
reported.conditions: rat, in vivo, long-term toxicity test, read-out: NOAEL dose
metric: NOAEL at 13 weeks (mg/kg)
Answers are plain numbers, in mg/kg.

Ask: Given the compound CCCCC(O)c1ccc(Br)cc1C(=O)[O-].[Na+] (stereo not shown) , what is its reported NOAEL at 13 weeks?
Reply: 50

----------
System: platelet aggregation
method.description: Ex vivo platelet aggregation
Type: cell-based
reported.conditions: Platelet, AA-induced
metric: IC50
Please answer in the form of a number followed by its unit of measurement.

Ask: Given the compound CCCCC(O)c1ccc(Br)cc1C(=O)[O-].[Na+] (stereo not shown) [BZP] , what is its reported IC50?
Reply: 12 µM

----------
method.description: BZP1702 Phase I multiple doses pharmacokinetics in healthy subjects
reported.conditions: both, human, plasma, iv
metric: half-life

Ask: Given the compound CCCCC(O)c1ccc(Br)cc1C(=O)[O-].[Na+] (stereo not shown) [BZP] , what is its reported half-life?
Reply: 11.1 to 13.3 h
